Listing: half-life of selected compounds
Conditions: rat; liver microsomes; pH 7.4; 15.0 min; 1.0 µM

Consider the worked cases shown below.
O=C(Nc1nc(-c2ccccc2)cs1)c1ccncc1NS(=O)(=O)c1ccccc1Cl | 15 min
C[C@@]12O[C@@H](C[C@]1(O)CO)n1c3ccccc3c3c4c(c5c6ccccc6n2c5c31)CNC4=O | > 30 min
CN(C(=O)OC(C)(C)C)[C@@H](Cc1ccc(O[S+](=O)([O-])c2cccc3cnccc23)cc1)C(=O)N1CCN(C(=O)OCc2ccccc2)CC1 | 1.74 min
O=S(=O)(c1ccccc1)N1CCN(c2nc(-c3ccc(Br)cc3)cs2)CC1 | 27.7 min
Cc1noc(C)c1C(=O)N1CCC2(CC1)CCN(C(c1ccccc1)c1ccccc1)CC2 | 9.4 min
COc1cccc(S(=O)(=O)Nc2cnccc2C(=O)Nc2nc(-c3ccccc3)cs2)c1 | 6.7 min
Cc1ccc2oc(NC3=NC4(CCCC4)C4=C(CCCC4=O)N3)nc2c1 | 2.7 min
COc1ccc(C2c3c(oc4ccc(C)cc4c3=O)C(=O)N2CCCN2CCOCC2)cc1OC (centres undefined) | 7.59 min

Next compound, half-life to be filled in.
# input compound: Cc1ccc(NC(=O)c2ccncc2NS(=O)(=O)c2ccc(C)cc2)cc1 ; wanted: its half-life 2.9 min

---

Settings: rat; liver microsomes; pH 7.4; 15.0 min; 1.0 µM
We begin with a simple list: items and their reported half-life.
Number in min, nothing else.

Reference set, count: 3
O=C1CCCC2=C1C(c1ccccc1C(F)(F)F)N=C(Nc1nc3ccccc3o1)N2 (stereo not given) | 10
O=C(Nc1nc(-c2ccccc2)cs1)c1ccncc1NS(=O)(=O)c1ccc(C(F)(F)F)cc1 | 20
Cn1c2ccccc2c2c3c(c4c5ccccc5n(CCC#N)c4c21)CNC3=O | 4.29

Attention now turns to another entry.
Which half-life is listed for COCCNC(=O)[C@H]1C[C@H](Oc2ccccc2)CN1Cc1ccc2[nH]ccc2c1 ? 0.97

---

Settings: rat; liver microsomes; pH 7.4; 15.0 min; 1.0 µM
half-life: recorded values
Please reply with the bare figure in min and do not write the unit itself.

Some molecules with recorded half-life:
O=C1CCCC2=C1C(c1[nH]ncc1Cl)N=C(Nc1nc3ccc(F)cc3o1)N2 (stereo unspecified) | 14
O=C(O)c1c(Sc2ccccc2)c2cc(Cl)ccc2n1Cc1ccc(Cl)cc1 | 26.6
COc1ccc(-c2csc(NC(=O)c3ccncc3NS(=O)(=O)c3ccc(C)cc3)n2)cc1 | 4.7
CCOC(=O)C1CCN(c2ncnc3c2c(-c2ccccc2)cn3-c2ccccc2)CC1 | 1.69

Query: half-life; subject: COc1cc(OC)cc(-c2csc(N3CCC(C(N)=O)CC3)n2)c1 2.09

I have this molecule here, Clc1ccc(Nc2nc(-c3ccncc3)nc3ccccc23)cc1Cl , and I need its recorded half-life. 15

What value of half-life has been recorded for this entry: CCN1C(=O)c2ccccc2S(=O)c2ccc(NC(=O)Cc3ccc(F)cc3)cc21 (stereo unspecified) 6.3

Which half-life value belongs to CC1CCC(NC(=O)c2ccc3c(c2)N(Cc2ccccc2F)C(=O)c2ccccc2S3)CC1 (stereo unspecified) ? 2.12

Given the entry COc1ccc(Nc2nc(-c3cccc(OC)c3)no2)cc1 , report its measured half-life. 20.3

Recorded half-life for CCOC(=O)C1CCN(c2nc(-c3ccc(Br)cc3)cs2)CC1 , please? 2.19

Query: half-life; subject: CN1CC=C(c2nc(Nc3ccc(F)c(F)c3)c3ccccc3n2)CC1 3.6

Name the reported half-life value associated with the molecule Fc1ccc(Nc2nc(-c3ccncc3)ncc2-c2ccccc2)cc1F 27

Which measured half-life value corresponds to Cc1ccnc(N=C(N)N2CCN(c3cccc(C(F)(F)F)c3)CC2)c1 ? 2.26

So what's the measured half-life for this one? CCN1C(=O)c2ccccc2[S@](=O)c2ccc(C(=O)N[C@H](C)c3ccc4ccccc4c3)cc21 5.2
